Sourced from ChEMBL document CHEMBL2046311

CC50: recorded values
method: Cytotoxicity against human HepG2(2.2.15) cells by modified-MTT assay
Assay type: cell-based
endpoint: CC50 (µM)

chemical_string	endpoint	unit_of_measurement	value_comparator	measured_result
CC(=O)[C@]1(O)CC[C@@]2(O)[C@]1(C)[C@H](OC(=O)/C=C(\C)C(C)C)C[C@@H]1[C@@]3(C)CC[C@H](OC(=O)/C=C/c4cccc(F)c4F)CC3=CC[C@]12O	CC50	µM	=	118
CC(=O)[C@]1(O)CC[C@@]2(O)[C@]1(C)[C@H](OC(=O)/C=C(\C)C(C)C)C[C@@H]1[C@@]3(C)CC[C@H](OC(=O)/C=C/c4cccc(C(F)(F)F)c4)CC3=CC[C@]12O	CC50	µM	=	718
CC(=O)[C@]1(OC(=O)/C=C/c2ccccc2[N+](=O)[O-])CC[C@@]2(O)[C@]1(C)[C@H](OC(=O)/C=C(\C)C(C)C)C[C@@H]1[C@@]3(C)CC[C@H](OC(=O)/C=C/c4ccccc4[N+](=O)[O-])CC3=CC[C@]12O	CC50	µM	>	1740
CC(=O)[C@]1(O)CC[C@@]2(O)[C@]1(C)[C@H](OC(=O)/C=C(\C)C(C)C)C[C@@H]1[C@@]3(C)CC[C@H](OC(=O)/C=C/c4cc(F)cc(F)c4)CC3=CC[C@]12O	CC50	µM	>	1340
